Values from ChEMBL document CHEMBL4616678

- MEASURED ON: Cannabinoid receptor 2 (Homo sapiens)
- Sequence (P34972 whole entry): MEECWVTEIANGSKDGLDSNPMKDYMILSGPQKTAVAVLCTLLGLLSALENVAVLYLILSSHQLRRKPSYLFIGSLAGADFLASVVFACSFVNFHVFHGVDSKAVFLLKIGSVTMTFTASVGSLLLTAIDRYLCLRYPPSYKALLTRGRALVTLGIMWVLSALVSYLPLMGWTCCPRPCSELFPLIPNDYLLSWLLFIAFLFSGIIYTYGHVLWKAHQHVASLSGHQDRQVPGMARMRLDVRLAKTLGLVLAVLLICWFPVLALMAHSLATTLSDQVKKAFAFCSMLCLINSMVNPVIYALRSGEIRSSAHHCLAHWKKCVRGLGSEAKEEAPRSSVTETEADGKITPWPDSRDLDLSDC
- ASSAY SUMMARY: Displacement of [3H]-CP-55,940 from recombinant human CB2R expressed in HEK293 cell membranes
EXPERIMENTAL READOUT: log10 of Ki (log10 of the value in nM)
Values are log10 of Ki in nM.

# COMPOUND, log10 of Ki
measured = [
    ("CCCCCn1c(=O)c(C(=O)NC23CC4CC(CC(C4)C2)C3)c(O)c2nn(C)cc21", -0.74),
]

Would you be so kind as to report log10 of Ki for each listed record?
1. CN1N=CC2C1C(O)=C(C(=O)NC13CC4CC(CC(C4)C1)C3)C(=O)N2CCCCF (configuration not stated)
2. CCCCn1c(=O)c(C(=O)NC23CC4CC(CC(C4)C2)C3)c(O)c2nn(C)cc21
3. CCCCn1c(=O)c(C(=O)NC23CC4CC(CC(O)(C4)C2)C3)c(O)c2nn(C)cc21

A)
1: 0.15; 2: 0.40; 3: 1.03

Give log10 of Ki for each listed item.
1. CCCCCn1c(=O)c(C(=O)NC23CC4CC(CC(C4)C2)C3)c(O)c2nn(CCO)cc21
2. CCCCN1C(=O)C(C(=O)NC23CC4CC(CC(C4)C2)C3)=C(O)C2C1C=NN2C (configuration not stated)
3. CCCCN1C(=O)C(C(=O)NC23CC4CC(CC(O)(C4)C2)C3)=C(O)C2C1C=NN2C (configuration not stated)

A)
1: 0.68; 2: 0.26; 3: 1.29
